Here the recorded %I is given for each entry.
tested on: S. pneumoniae; settings: 2002 (n = 103)

{"compound": "CC[C@H]1OC(=O)[C@H](C)[C@@H](O[C@H]2C[C@@](C)(OC)[C@@H](O)[C@H](C)O2)[C@H](C)[C@@H](O[C@@H]2O[C@H](C)C[C@H](N(C)C)[C@H]2O)[C@](C)(O)C[C@@H](C)C(=O)[C@H](C)[C@@H](O)[C@]1(C)O [erythromycin]", "%I, %": 0}
{"compound": "C[C@H]1COc2c(N3CCN(C)CC3)c(F)cc3c(=O)c(C(=O)O)cn1c23 [levofloxacin]", "%I, %": 3}
{"compound": "CO/N=C(\\C(=O)N[C@@H]1C(=O)N2C(C(=O)O)=C(COC(C)=O)CS[C@H]12)c1csc(N)n1 [cefotaxime]", "%I, %": 3.8}
{"compound": "CC[C@H]1OC(=O)[C@H](C)[C@@H](O[C@H]2C[C@@](C)(OC)[C@@H](O)[C@H](C)O2)[C@H](C)[C@@H](O[C@@H]2O[C@H](C)C[C@H](N(C)C)[C@H]2O)[C@](C)(OC)C[C@@H](C)C(=O)[C@H](C)[C@@H](O)[C@]1(C)O [clarithromycin]", "%I, %": 0}
{"compound": "CC1(C)S[C@@H]2[C@H](NC(=O)Cc3ccccc3)C(=O)N2[C@H]1C(=O)O [penicillin]", "%I, %": 31.1}
{"compound": "COc1c(N2C[C@@H]3CCCN[C@@H]3C2)c(F)cc2c(=O)c(C(=O)O)cn(C3CC3)c12 [moxifloxacin]", "%I, %": 3}
